Ki, 5-hydroxytryptamine receptor 2A (Homo sapiens), per-entry values.

# compoundStructure, measuredResult
records = [
    ("COc1ccc(N2Cc3c(c4cc(Cl)ccc4n3C)C2=O)cc1OCCN1CCCCC1", "158 nM"),
]

Ask | Any idea what its Ki is? The compound is "COc1ccc(N2Cc3c(c4cccc(F)c4n3C)C2=O)cc1OCCN1CCC(C)CC1"
Reply | 251 nM

Ask | Any idea what its Ki is? The compound is "COc1ccc2c(c1)c1c(n2C)CN(c2ccc(OC)c(OCCN3CCCCC3)c2)C1=O"
Reply | 1000 nM

Ask | Any idea what its Ki is? The compound is "COc1ccc(N2Cc3c(c4ccc(F)cc4n3C)C2=O)cc1OCCN1CCCCC1"
Reply | > 10000 nM

Ask | Any idea what its Ki is? The compound is "COc1ccc(N2Cc3c(c4cc(Cl)c(Cl)cc4n3C)C2=O)cc1OCCN1CCCCC1"
Reply | 501 nM
